Target: T1, CD23 (FCεRII) on human CD23+ cells (human, UniProt P06734 1-321)
T1 sequence (looked up): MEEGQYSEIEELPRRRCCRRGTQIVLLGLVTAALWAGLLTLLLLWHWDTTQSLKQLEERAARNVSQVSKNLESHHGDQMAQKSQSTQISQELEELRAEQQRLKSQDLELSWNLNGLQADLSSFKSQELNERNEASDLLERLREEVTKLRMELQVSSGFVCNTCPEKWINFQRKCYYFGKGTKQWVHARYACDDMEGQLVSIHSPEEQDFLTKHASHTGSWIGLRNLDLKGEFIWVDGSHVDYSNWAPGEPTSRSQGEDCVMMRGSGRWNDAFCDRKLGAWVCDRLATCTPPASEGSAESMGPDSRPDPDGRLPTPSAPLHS
Experiment: cell-based or functional assay
Positions of bridges follow the written chain, without caps; N, C: chain ends. No end group written: not given here.
experimental.readout: % Inhibition (nitrites; inhibition of iNOS production by activated CD23+ macrophages) (%)

binder	unit.abbrev	value.measured
FHSQWPN [FHSQWPN (p30E)]	%	65
HENWGS (cyclic H2T (N-terminus amino group to C-terminus carboxyl group linkage)) [Compound 299]	%	74
HENWES (lactam N-5) [Compound 327]	%	60
FHENWP [P30L (F H E N W P)]	%	78
HENWKS [Compound 333]	%	69
FHEAWPS [Compound 331]	%	43
FHEQWPS [P30O (F H E Q W P S)]	%	73
FHENWPS [FHENWPS peptide (p30A)]	%	74
HENAPS [Compound 436]	%	60
